molecular target: GRID2IP_2, A4D2P6; assay: holdup assay; design: key: below the threshold = too weak to quantify, mostly under pKd 3.1 to 4; conditions: plain residues with an end cap or a label only (N-terminal biotin on a linker: ado-ado)
Sequence (A4D2P6 272-370): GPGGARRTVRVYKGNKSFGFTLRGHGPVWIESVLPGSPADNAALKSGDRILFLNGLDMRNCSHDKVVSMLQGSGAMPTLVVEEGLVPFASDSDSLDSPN

binder	pKd
DRIQSCLSDA [SBF1, O95248]	below the threshold
EKCGKEFSEF [PRKACA, P17612]	below the threshold
QSGLYESEEL [MYOT, Q9UBF9]	below the threshold
